Field: protein stability index. Provide a value for each of the variants that follow.
B1: ZNF263 (parent)
chain: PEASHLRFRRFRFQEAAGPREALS

variants of: B1; assay: protein stability index of a GFP-peptide fusion (GPS, HEK-293T) (PSI 1-6); higher = more stable; settings: c terminus: a fixed tail appended;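 also: lentivirally expressed fusions sorted by FACS into six bins by GFP to DsRed ratio, PSI derived from sequencing read proportions per bin multiplied by bin number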
Numbers only.

Reported protein stability index for PEAEHLRFRRFRFQEAAGPREALS : what is it?
2.97

// each variant listed below needs its protein stability index
1. PEASHLRFRRFRFQEAAGPREALN
2. PEASHLRFRRFRFQLAAGPREALS
3. PEASHLRYRRFRFQEAAGPREALS
4. PEASHLRFRRFRFQEAYGPREALS
5. PEASHLRFARFRFQEAAGPREALS

3.28
2.02
2.76
2.04
3.18

Give one value of protein stability index per listed variant.
1. PEAQHLRFRRFRFQEAAGPREALS
2. PEASHLRFRRFRFNEAAGPREALS
3. PEASHLRFRRFRFQEAAGPREADS
4. PEASHLRFRNFRFQEAAGPREALS
5. WEASHLRFRRFRFQEAAGPREALS
6. PEASHLRFRRFRFQEMAGPREALS
7. PEASHARFRRFRFQEAAGPREALS
8. PEAWHLRFRRFRFQEAAGPREALS

1: 2.19; 2: 3; 3: 3.75; 4: 2.35; 5: 2.08; 6: 2.15; 7: 3.3; 8: 3.12

Look up protein stability index for the entries below, preserving their order.
1. PEASHLRFRRFRFTEAAGPREALS
2. PEASHLRFRRFRFQEAAGPREALQ
3. PEASHLRFRRFRFQSAAGPREALS
4. PEASHLRFRRFRFQEAAGPREACS
5. PEASHLRFRRFRFQEAAGPMEALS

2.88
2.49
2.54
2.7
2.21

I'm hoping you can list protein stability index for every variant here, please.
1. PEASALRFRRFRFQEAAGPREALS
2. PEASHLRFRRFQFQEAAGPREALS
3. PEASHIRFRRFRFQEAAGPREALS

2.61
4.36
2.42

All values here come from the supplement of paper PMC10567573.
